Values from ChEMBL document CHEMBL3271962

Listed below: pIC50 values for each entry.
Tested System: Transporter (Rattus norvegicus)
Sequence (Q63380 whole entry): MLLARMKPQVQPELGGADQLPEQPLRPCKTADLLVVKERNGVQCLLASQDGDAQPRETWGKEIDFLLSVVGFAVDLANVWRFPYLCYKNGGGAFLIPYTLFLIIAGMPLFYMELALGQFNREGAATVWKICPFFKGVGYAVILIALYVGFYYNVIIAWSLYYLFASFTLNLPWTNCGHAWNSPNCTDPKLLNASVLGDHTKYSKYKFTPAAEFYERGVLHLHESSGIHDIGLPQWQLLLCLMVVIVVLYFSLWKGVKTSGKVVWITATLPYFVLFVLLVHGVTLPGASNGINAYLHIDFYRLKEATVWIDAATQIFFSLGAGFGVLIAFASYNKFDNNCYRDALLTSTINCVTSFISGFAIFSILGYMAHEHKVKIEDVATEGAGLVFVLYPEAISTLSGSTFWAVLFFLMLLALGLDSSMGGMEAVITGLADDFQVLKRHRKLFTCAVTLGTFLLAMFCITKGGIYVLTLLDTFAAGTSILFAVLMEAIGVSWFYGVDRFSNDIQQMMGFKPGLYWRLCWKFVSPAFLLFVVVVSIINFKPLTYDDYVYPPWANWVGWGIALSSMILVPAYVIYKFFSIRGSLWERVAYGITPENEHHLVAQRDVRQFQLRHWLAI
Test Method Notes: Inhibition of [3H]norepinephrine uptake at NET expressed in rat hypothalamic homogenate containing synaptosomes after 5 mins by scintillation counting analysis
pIC50: −log10 of the molar value.
Measurement Name: pIC50

[
  {
    "Molecule": "NC1C[C@@H]2CCCC[C@H]2CC1c1ccccc1 (mixture of isomers; 2)",
    "Numeric Result": 4.74
  },
  {
    "Molecule": "NC1C[C@@H]2CCCC[C@H]2CC1c1ccccc1 (mixture of isomers; 4)",
    "Numeric Result": 5.26
  },
  {
    "Molecule": "NC1C[C@@H]2CCCC[C@H]2CC1c1ccccc1 (mixture of isomers; 1)",
    "Numeric Result": 6.18
  },
  {
    "Molecule": "NC1C[C@@H]2CCCC[C@H]2CC1c1ccccc1 (mixture of isomers; 3)",
    "Numeric Result": 5.05
  }
]
